# Study target: biotinylated human siglec-2/CD22 protein-His-Avitag (Homo sapiens, UniProt P20273)
# Sequence (P20273 20-847): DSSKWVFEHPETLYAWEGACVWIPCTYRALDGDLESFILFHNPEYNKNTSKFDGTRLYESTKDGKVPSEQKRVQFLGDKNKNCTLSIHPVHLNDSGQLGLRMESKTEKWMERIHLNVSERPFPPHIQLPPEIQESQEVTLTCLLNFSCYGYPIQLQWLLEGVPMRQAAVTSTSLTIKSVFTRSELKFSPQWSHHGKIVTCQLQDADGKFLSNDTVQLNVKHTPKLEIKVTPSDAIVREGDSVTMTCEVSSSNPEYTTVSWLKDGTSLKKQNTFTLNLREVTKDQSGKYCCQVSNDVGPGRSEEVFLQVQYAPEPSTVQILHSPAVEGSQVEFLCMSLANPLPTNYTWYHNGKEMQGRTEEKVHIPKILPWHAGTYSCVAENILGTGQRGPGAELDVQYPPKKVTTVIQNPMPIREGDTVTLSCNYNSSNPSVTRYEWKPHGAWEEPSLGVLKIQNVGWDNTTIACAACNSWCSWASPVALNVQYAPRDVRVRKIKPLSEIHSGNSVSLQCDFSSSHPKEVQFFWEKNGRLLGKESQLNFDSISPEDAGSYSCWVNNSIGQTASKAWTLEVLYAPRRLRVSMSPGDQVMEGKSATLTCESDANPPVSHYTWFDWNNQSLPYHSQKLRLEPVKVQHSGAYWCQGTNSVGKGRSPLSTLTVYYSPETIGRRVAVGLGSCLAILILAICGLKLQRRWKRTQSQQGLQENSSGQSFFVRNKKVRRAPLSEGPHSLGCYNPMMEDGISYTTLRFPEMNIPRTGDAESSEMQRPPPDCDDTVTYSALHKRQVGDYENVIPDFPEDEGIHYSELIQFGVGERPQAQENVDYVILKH
# Assay name: SPR binding to human siglec-2/CD22
# Test settings: steady-state analysis, read-out: Human CD22 affinity
pKd: −log10 of the molar value.
Measured property: pKd

Ask | Quick one: pKd of CCCNC(=O)CCOCCOCCOCCOCCn1cc(-c2ccc(CC(=O)NC[C@@H](O)[C@@H](O)[C@@H]3O[C@@](OCCCCCCOC)(C(=O)O)C[C@H](O)[C@H]3NC(=O)CO)cc2)nn1 ?
Reply | 5.00 to 6.00

Ask | For the compound shown here, C#Cc1ccc(CC(=O)NC[C@@H](O)[C@@H](O)[C@@H]2O[C@@](SCc3ccccc3)(C(=O)O)C[C@H](O)[C@H]2NC(=O)CO)cc1 , give the reported pKd.
Reply | > 6.00

Ask | Value lookup for pKd; key = C#CCCCCCCC#Cc1ccc(CC(=O)NC[C@@H](O)[C@@H](O)[C@@H]2O[C@@](OCc3ccccc3)(C(=O)O)C[C@H](O)[C@H]2NC(=O)CO)cc1
Reply | 5.00 to 6.00

Ask | Return reported pKd; argument: C#Cc1ccc(CC(=O)NC[C@@H](O)[C@@H](O)[C@@H]2O[C@@](OCCCCCCOC)(C(=O)O)C[C@H](O)[C@H]2NC(=O)CO)cc1
Reply | > 6.00

Ask | Return reported pKd; argument: C#Cc1ccc(CC(=O)NC[C@@H](O)[C@@H](O)[C@@H]2O[C@@](OCCCCCCNC(=O)CCCC)(C(=O)O)C[C@H](O)[C@H]2NC(=O)CO)cc1
Reply | > 6.00

Ask | Sample C#CCO[C@H]1C[C@](OCc2ccccc2)(C(=O)O)O[C@@H]([C@H](O)[C@H](O)CNC(=O)Cc2ccc(Cl)cc2)[C@@H]1NC(=O)CO — what was its pKd?
Reply | 5.00 to 6.00

Ask | What value of pKd has been recorded for this entry: O=C(Cc1ccc(-c2cn(CCO)nn2)cc1)NC[C@@H](O)[C@@H](O)[C@@H]1O[C@@](OCc2ccccc2)(C(=O)O)C[C@H](O)[C@H]1NC(=O)CO
Reply | 5.00 to 6.00

Ask | Quick one: pKd of C#CCO[C@H]1C[C@](OCCCCCC(=O)O)(C(=O)O)O[C@@H]([C@H](O)[C@H](O)CNC(=O)Cc2ccc(Cl)cc2)[C@@H]1NC(=O)CO ?
Reply | 5.00 to 6.00

Ask | I would be grateful if you could share the reported pKd for CCCNC(=O)CCOCCOCCOCCOCCn1cc(-c2ccc(CC(=O)NC[C@@H](O)[C@@H](O)[C@@H]3O[C@@](OCCCCCCn4cc(COCCOC)nn4)(C(=O)O)C[C@H](O)[C@H]3NC(=O)CO)cc2)nn1 .
Reply | > 6.00

Ask | GET /values?readout=pKd&item= CCCNC(=O)CCOCCOCCOCCOCCn1cc(-c2ccc(CC(=O)NC[C@@H](O)[C@@H](O)[C@@H]3O[C@@](OCCCCCCNc4c(NCCOC)c(=O)c4=O)(C(=O)O)C[C@H](O)[C@H]3NC(=O)CO)cc2)nn1
Reply | > 6.00

Ask | pKd lookup needed for O=C(Cc1ccc(OCc2cn(CCO)nn2)cc1)NC[C@@H](O)[C@@H](O)[C@@H]1O[C@@](OCc2ccccc2)(C(=O)O)C[C@H](O)[C@H]1NC(=O)CO , thanks.
Reply | 5.00 to 6.00

Ask | Name the reported pKd value associated with the compound C#CCOCCOCCOCCOCCOCCNC(=O)N[C@H]1[C@H]([C@H](O)[C@H](O)CNC(=O)Cc2ccc(Cl)cc2)O[C@@](OCc2ccccc2)(C(=O)O)C[C@@H]1O
Reply | < 5.00

Ask | Look up pKd for this compound: O=C(O)CCCCCCCCCCc1ccc(CC(=O)NC[C@@H](O)[C@@H](O)[C@@H]2O[C@@](OCc3ccccc3)(C(=O)O)C[C@H](O)[C@H]2NC(=O)CO)cc1
Reply | > 6.00

Ask | Value lookup for pKd; key = C#Cc1ccc(CC(=O)NC[C@@H](O)[C@@H](O)[C@@H]2O[C@@](OCCOCCOCCOC)(C(=O)O)C[C@H](O)[C@H]2NC(=O)CO)cc1
Reply | 5.00 to 6.00

Ask | # query: pKd of entry C#Cc1ccc(CC(=O)NC[C@@H](O)[C@@H](O)[C@@H]2O[C@@](OCCCCCCN)(C(=O)O)C[C@H](O)[C@H]2NC(=O)CO)cc1
Reply | 5.00 to 6.00

====

Would you kindly list pKd for each of these compounds?
# Study target: recombinant cynomolgus siglec-2/CD22 His-tag (Macaca fascicularis, UniProt A0A2K5WCZ6)
# Sequence (A0A2K5WCZ6 entry or part of it): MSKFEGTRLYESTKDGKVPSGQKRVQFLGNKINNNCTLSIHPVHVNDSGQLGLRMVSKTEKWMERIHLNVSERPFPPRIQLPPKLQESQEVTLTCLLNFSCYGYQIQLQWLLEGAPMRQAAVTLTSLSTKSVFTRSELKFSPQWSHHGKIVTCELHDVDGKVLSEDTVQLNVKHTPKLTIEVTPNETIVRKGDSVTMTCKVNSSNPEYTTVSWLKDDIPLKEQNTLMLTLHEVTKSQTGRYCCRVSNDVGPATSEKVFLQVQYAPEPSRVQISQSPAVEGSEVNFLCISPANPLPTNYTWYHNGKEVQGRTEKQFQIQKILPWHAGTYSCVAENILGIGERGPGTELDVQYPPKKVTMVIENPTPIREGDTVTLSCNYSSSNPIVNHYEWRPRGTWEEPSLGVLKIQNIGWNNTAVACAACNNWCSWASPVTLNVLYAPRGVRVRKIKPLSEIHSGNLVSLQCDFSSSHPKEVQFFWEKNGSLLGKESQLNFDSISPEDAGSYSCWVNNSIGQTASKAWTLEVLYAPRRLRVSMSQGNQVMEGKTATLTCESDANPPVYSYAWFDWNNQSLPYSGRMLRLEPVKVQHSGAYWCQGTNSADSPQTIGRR
# Assay name: SPR binding to cynomolgus siglec-2/CD22
# Test settings: steady-state analysis, read-out: Cyno CD22 affinity
pKd: −log10 of the molar value.

Ask | Any idea what its pKd is? The compound is C#Cc1ccc(CC(=O)NC[C@@H](O)[C@@H](O)[C@@H]2O[C@@](SCc3ccccc3)(C(=O)O)C[C@H](O)[C@H]2NC(=O)CO)cc1
Reply | > 6.00

Ask | Entry C#Cc1ccc(CC(=O)NC[C@@H](O)[C@@H](O)[C@@H]2O[C@@](OCCCCCCc3cn(CCOCCOC)nn3)(C(=O)O)C[C@H](O)[C@H]2NC(=O)CO)cc1 has what pKd?
Reply | > 6.00

Ask | # query: pKd of entry CCCNC(=O)CCOCCOCCOCCOCCn1cc(-c2ccc(CC(=O)NC[C@@H](O)[C@@H](O)[C@@H]3O[C@@](OCCCCCCOC)(C(=O)O)C[C@H](O)[C@H]3NC(=O)CO)cc2)nn1
Reply | 5.00 to 6.00

====

# Study target: biotinylated mouse siglec-2-Fc-Avi (Mus musculus, UniProt P35329)
# Sequence (P35329 22-708 limits assumed): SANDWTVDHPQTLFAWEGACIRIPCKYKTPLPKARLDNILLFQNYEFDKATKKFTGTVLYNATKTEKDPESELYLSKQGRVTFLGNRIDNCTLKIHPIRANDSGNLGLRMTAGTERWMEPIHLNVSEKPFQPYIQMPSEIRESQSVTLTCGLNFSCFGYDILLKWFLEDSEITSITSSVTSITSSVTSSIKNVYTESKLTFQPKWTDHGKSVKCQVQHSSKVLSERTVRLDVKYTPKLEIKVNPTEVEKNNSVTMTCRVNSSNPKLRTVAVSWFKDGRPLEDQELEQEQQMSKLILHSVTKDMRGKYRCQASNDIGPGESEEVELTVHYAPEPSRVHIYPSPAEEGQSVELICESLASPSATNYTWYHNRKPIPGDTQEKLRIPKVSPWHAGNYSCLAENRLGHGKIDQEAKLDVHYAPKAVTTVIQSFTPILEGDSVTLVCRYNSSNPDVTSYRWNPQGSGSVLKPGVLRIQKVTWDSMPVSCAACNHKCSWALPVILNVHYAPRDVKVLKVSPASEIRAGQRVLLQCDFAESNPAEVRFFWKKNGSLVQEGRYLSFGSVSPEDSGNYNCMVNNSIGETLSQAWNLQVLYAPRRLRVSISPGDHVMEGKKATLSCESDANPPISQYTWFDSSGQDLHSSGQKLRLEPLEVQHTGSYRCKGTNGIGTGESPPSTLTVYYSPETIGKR
Measured property: Kd

Ask | Param item = C#CCCCCCCC#Cc1ccc(CC(=O)NC[C@@H](O)[C@@H](O)[C@@H]2O[C@@](OCc3ccccc3)(C(=O)O)C[C@H](O)[C@H]2NC(=O)CO)cc1 [Compound 6] ; retrieve measured Kd.
Reply | 1000 to 10000 nM

Ask | Would you kindly share the measured Kd for C#Cc1ccc(CC(=O)NC[C@@H](O)[C@@H](O)[C@@H]2O[C@@](OCc3ccc(O)cc3)(C(=O)O)C[C@H](O)[C@H]2NC(=O)CO)cc1 [Compound 3] ?
Reply | 1000 to 10000 nM

Ask | Given the entry C#CCOc1ccc(CC(=O)NC[C@@H](O)[C@@H](O)[C@@H]2O[C@@](OCc3ccccc3)(C(=O)O)C[C@H](O)[C@H]2NC(=O)CO)cc1 [Compound 4] , report its measured Kd.
Reply | 1000 to 10000 nM

Ask | Consider the compound O=C(Cc1ccc(-c2cn(CCO)nn2)cc1)NC[C@@H](O)[C@@H](O)[C@@H]1O[C@@](OCc2ccccc2)(C(=O)O)C[C@H](O)[C@H]1NC(=O)CO [Compound 2] and give its measured Kd.
Reply | 1000 to 10000 nM

Ask | Could you share which Kd value was measured for C#Cc1ccc(CC(=O)NC[C@@H](O)[C@@H](O)[C@@H]2O[C@@](OCCCCCCc3cn(CCOCCOC)nn3)(C(=O)O)C[C@H](O)[C@H]2NC(=O)CO)cc1 [Compound 27] ?
Reply | < 1000 nM

Ask | Data request, read-out Kd, for CCCNC(=O)CCOCCOCCOCCOCCn1cc(-c2ccc(CC(=O)NC[C@@H](O)[C@@H](O)[C@@H]3O[C@@](OCCCCCCn4cc(COCCOC)nn4)(C(=O)O)C[C@H](O)[C@H]3NC(=O)CO)cc2)nn1 [Compound 55]
Reply | 1000 to 10000 nM

Ask | Return reported Kd; argument: C#Cc1ccc(CC(=O)NC[C@@H](O)[C@@H](O)[C@@H]2O[C@@](OCCCCCCOC)(C(=O)O)C[C@H](O)[C@H]2NC(=O)CO)cc1 [Compound 11]
Reply | 1000 to 10000 nM

Ask | Requested read-out: Kd. Entry: C#Cc1ccc(CC(=O)NC[C@@H](O)[C@@H](O)[C@@H]2O[C@@](OCCCCCCn3cc(COCCOC)nn3)(C(=O)O)C[C@H](O)[C@H]2NC(=O)CO)cc1 [Compound 28]
Reply | < 1000 nM

Ask | // Kd lookup, key: C#CCO[C@H]1C[C@](OCCCCCC(=O)O)(C(=O)O)O[C@@H]([C@H](O)[C@H](O)CNC(=O)Cc2ccc(Cl)cc2)[C@@H]1NC(=O)CO [Compound 20]
Reply | 1000 to 10000 nM

Ask | So what does the record say about Kd for C#CCOCCCCCCCc1ccc(CC(=O)NC[C@@H](O)[C@@H](O)[C@@H]2O[C@@](OCc3ccccc3)(C(=O)O)C[C@H](O)[C@H]2NC(=O)CO)cc1 [Compound 13] ?
Reply | 1000 to 10000 nM

Ask | Please report the recorded Kd for C#CCOCCOCCOCc1ccc(CC(=O)NC[C@@H](O)[C@@H](O)[C@@H]2O[C@@](OCc3ccccc3)(C(=O)O)C[C@H](O)[C@H]2NC(=O)CO)cc1 [Compound 9] .
Reply | 1000 to 10000 nM

Ref: patent US20250127904A1
